This section presents sequences with their documented cleaved RNA product abundance values.
Tested on: Bacillus subtilis
Test Details: cleaved RNA product abundance (RNA/gDNA barcode ratio) relative to median wild-type variant (ratio to wild type); higher = more accumulation of the downstream cleavage product
Experimental Parameters: experiment (reporter, strain, medium): exp 8a: truncated aprE reporter, strain BJT201 with 2% xylose (RNase J1 expressed); cleavage site: glnRA (positions -5 to +31 mutated)
Reported Endpoint: cleaved RNA product abundance

Sequence Input | Reported Endpoint | Measured Value
CGACATGTCCCGCTTCTTTCATTAATCCGTTAGCAAGTGTTATGCTATATACATTTACCTTTTAAGAGGAGGAAT | cleaved RNA product abundance | 0.19
CGACATGTCCCGCTTCTTTCATTATTCCGTTAGCAACTGTTTTGCTATATACATTTGCCTTTTAAGAGGAGGAAT | cleaved RNA product abundance | 0.599
CGACATGTCCCGCTTCTTTCATTAATCCGTTAGTAACTGTTTTGATATATACATTTACCTTTTAAGAGGAGGAAT | cleaved RNA product abundance | 0.66
CGACATGTCCCGCTTCTTTCATTAATCCGTCAGCAACTGTTTTGCTATATACATTTACCATTTAAGAGGAGGAAT | cleaved RNA product abundance | 0.704
CGACATGTCCCGCTTCTTTCATTAATCCGTTAGGAACTGTTTTGCTATAAACATTTACCTTTTAAGAGGAGGAAT | cleaved RNA product abundance | 0.289
CGACATGTCCCGCTTCTTTCATTAATCCGTTAGCAACTGATTTGCTATATACATATACCTTTTAAGAGGAGGAAT | cleaved RNA product abundance | 1
CGACATGTCCCGCTTCTTTCATTAATTCGTTAGCAACTGTATTGCAATATACATTTACCTTTTAAGAGGAGGAAT | cleaved RNA product abundance | 0.329

====

This section presents sequences with their documented cleaved RNA product abundance values.
Test system: Bacillus subtilis
Test Details: cleaved RNA product abundance (RNA/gDNA barcode ratio) relative to median wild-type variant (ratio to wild type); higher = more accumulation of the downstream cleavage product
Experimental Parameters: experiment (reporter, strain, medium): exp 4a: truncated aprE reporter, strain BJT201 with 2% xylose (RNase J1 expressed); cleavage site: cggR-gapA (positions -7 to +36 mutated)
Reported Endpoint: cleaved RNA product abundance

Sequence Input | Measured Value
ACAGACGAAGGAGCCGCAAAGAAGTTATTAAGGGATGAATAACACCACAATATAAATATCTCTCACTTATTTAAA | 0.0909
ACAGACGAAGGAGCCGCATAGAAGTTATTAAGGGATGAATAATCCCTCACTATAAATATCTCTCACTTATTTAAA | 0.24
ACAGACGAAGGAGCCGCAAAGAAGATATTAAGGGATGAATAAGCCCTCAATATAAATATCTCTCACTTATTTAAA | 0.432
ACAGACGAAGGAGCCGCAAAGAAGTTATTAAGGGATGAATAATTACTCAATATAAATATCTCTCACTTATTTAAA | 0.137
ACAGACGAAGGAGCCGCAAAGGAGTTTTTAAGGGATGAATAATCCCTCAATATAAATATCTCTCACTTATTTAAA | 0.369
ACAGACGAAGGAGCCGCAAAGAAGTTAATAAGGGATGAATTATCCCTCAATATAAATATCTCTCACTTATTTAAA | 0.339
ACAGACGAAGGAGCCGCAAAGAAGTTATTAAGGGATAGATAATCCCTCAATATAAATATCTCTCACTTATTTAAA | 0.791
ACAGACGAAGGAGCCGCAATGAAGTTATTAAGGGATGAATAATCCTTCAATATAAATATCTCTCACTTATTTAAA | 0.581
ACAGACGAAGGAGCCGCAAAGAAGTTATTAATGGATGAATGATCCCTCAATATAAATATCTCTCACTTATTTAAA | 0.113
ACAGACGAAGGAGCCGCAAAGTAGTTTTTAAGGGATGAATAATCCCTCAATATAAATATCTCTCACTTATTTAAA | 0.37
ACAGACGAAGGAGCCGCAAAGAAGTTATTAAGGAATGAATAATCCCTCAATATATATATCTCTCACTTATTTAAA | 0.149
ACAGACGAAGGAGCCGCAAAGAAGTTATTAAGAGATGAGTAATCCCTCAATATAAATATCTCTCACTTATTTAAA | 0.241
ACAGACGAAGGAGCCGCAAAAAAGTTATTAAGGTATGAATAATCCATCAATATAAATATCTCTCACTTATTTAAA | 0.23
ACAGACGAAGGAGCCGCAAAGAAGTTATTAATGGATGAATAAACCCTCAATATAAATATCTCTCACTTATTTAAA | 0.107
ACAGACGAAGGAGCCGCAAAGAAGTTATTAAGGGATGAAGAATCCTTCAATATAAATATCTCTCACTTATTTAAA | 0.405
